Experiment: Single dose PK profile (plasma and tumor) in Colon26 tumor bearing mice
Format: in vivo
Settings: female, mouse, iv, 25 mg/kg; tumor; 25 mpk i.v.
Procedure: Female mice (either athymic BALC/c nude, or BALB/c mice) were inoculated with a single subcutaneous injection of 0.1 ml of mouse Colon-26 cell suspension (1×10^5 cells per animal) in the right flank region. […]
The following compounds are shown together with reported AUC(0-t) values.
metric name: AUC(0-t) (ng·h/mL)

INSERT INTO measurements (record_smiles, value_measured) VALUES
  ('CNS(=O)(=O)Nc1cccc(Cc2c(CN3CCC3)c3ccc(OC(=O)N(C)C)cc3oc2=O)c1F', 8320),
  ('CNS(=O)(=O)Nc1cccc(Cc2c(CN(C)C)c3ccc(OC(=O)N(C)C)cc3oc2=O)c1F', 8280);

----------
Test system: A549 pERK
Experiment: A549-pERK, 2 h (quantitative Western, Jess)
Assay type: cell-based
Conditions: Homo sapiens, A549, 2 h, 10 uM, phospho:total ratio normalized to DMSO control
metric name: activity at 10 µM (%)

INSERT INTO measurements (record_smiles, measure_unit, value_measured) VALUES
  ('CNS(=O)(=O)Nc1cccc(Cc2c(CNCC(=O)N(C)CC#N)c3ccc(OC(=O)N(C)C)cc3oc2=O)c1F', '%', 11.2),
  ('CNS(=O)(=O)Nc1cccc(Cc2c(CCNCC3CC3)c3ccc(OC(=O)N(C)C)cc3oc2=O)c1F', '%', 0.74),
  ('C#CCNCCc1c(Cc2cccc(NS(=O)(=O)NC)c2F)c(=O)oc2cc(OC(=O)N(C)C)ccc12', '%', 0.82),
  ('CNS(=O)(=O)Nc1cccc(Cc2c(CNC(=O)c3nn[nH]n3)c3ccc(OC(=O)N(C)C)cc3oc2=O)c1F', '%', 70.1),
  ('CNS(=O)(=O)Nc1cccc(Cc2c(CNCC(=O)N(C)C)c3ccc(OC(=O)N(C)C)cc3oc2=O)c1F', '%', 7.33),
  ('CNS(=O)(=O)Nc1cccc(Cc2c(CN(C)C)c3ccc(OC(=O)N(C)C)cc3oc2=O)c1F', '%', 1.21),
  ('CNS(=O)(=O)Nc1cccc(Cc2c(CNCC(=O)O)c3cc(Cl)c(OC(=O)N(C)C)cc3oc2=O)c1F', '%', 23.4);

----------
Experiment: in vitro
Conditions: human, Caco-2
metric name: Papp A→B at 2 h, 10 μM

INSERT INTO measurements (compound, metric_name, value_measured) VALUES
  ('CC(=O)CC(c1ccccc1)c1c(O)c2ccccc2oc1=O (stereo not shown)', 'Papp A→B at 2 h, 10 μM', '> 1 ×10⁻⁶ cm/s');

----------
Assay: PAMPA (pH 7.4)
Settings: PAMPA
Reported Papp at 4 h, 50 uM is given for each of the following compounds.
metric name: Papp at 4 h, 50 uM (×10⁻⁶ cm/s)

INSERT INTO results (record_smiles, value_measured) VALUES
  ('CNS(=O)(=O)Nc1cccc(Cc2c(CN3CCC3)c3ccc(OC(=O)N(C)C)cc3oc2=O)c1F', 51),
  ('CNS(=O)(=O)Nc1cccc(Cc2c(CN(C)C)c3ccc(OC(=O)N(C)C)cc3oc2=O)c1F', 37);

----------
AUC(0-t) reference
Experiment: Single dose PK profile (plasma and tumor) in Colon26 tumor bearing mice
Format: in vivo
Conditions: female, mouse, po, 25 mg/kg; plasma; 25 mpk p.o.
metric name: AUC(0-t) (ng·h/mL)

INSERT INTO results (record_smiles, metric_name, value_measured) VALUES
  ('CNS(=O)(=O)Nc1cccc(Cc2c(CN3CCC3)c3ccc(OC(=O)N(C)C)cc3oc2=O)c1F', 'AUC(0-t)', 3640),
  ('CNS(=O)(=O)Nc1cccc(Cc2c(CN(C)C)c3ccc(OC(=O)N(C)C)cc3oc2=O)c1F', 'AUC(0-t)', 4390);

----------
Target: hERG Channel (Homo sapiens, UniProt Q12809)
Sequence (Q12809 whole entry): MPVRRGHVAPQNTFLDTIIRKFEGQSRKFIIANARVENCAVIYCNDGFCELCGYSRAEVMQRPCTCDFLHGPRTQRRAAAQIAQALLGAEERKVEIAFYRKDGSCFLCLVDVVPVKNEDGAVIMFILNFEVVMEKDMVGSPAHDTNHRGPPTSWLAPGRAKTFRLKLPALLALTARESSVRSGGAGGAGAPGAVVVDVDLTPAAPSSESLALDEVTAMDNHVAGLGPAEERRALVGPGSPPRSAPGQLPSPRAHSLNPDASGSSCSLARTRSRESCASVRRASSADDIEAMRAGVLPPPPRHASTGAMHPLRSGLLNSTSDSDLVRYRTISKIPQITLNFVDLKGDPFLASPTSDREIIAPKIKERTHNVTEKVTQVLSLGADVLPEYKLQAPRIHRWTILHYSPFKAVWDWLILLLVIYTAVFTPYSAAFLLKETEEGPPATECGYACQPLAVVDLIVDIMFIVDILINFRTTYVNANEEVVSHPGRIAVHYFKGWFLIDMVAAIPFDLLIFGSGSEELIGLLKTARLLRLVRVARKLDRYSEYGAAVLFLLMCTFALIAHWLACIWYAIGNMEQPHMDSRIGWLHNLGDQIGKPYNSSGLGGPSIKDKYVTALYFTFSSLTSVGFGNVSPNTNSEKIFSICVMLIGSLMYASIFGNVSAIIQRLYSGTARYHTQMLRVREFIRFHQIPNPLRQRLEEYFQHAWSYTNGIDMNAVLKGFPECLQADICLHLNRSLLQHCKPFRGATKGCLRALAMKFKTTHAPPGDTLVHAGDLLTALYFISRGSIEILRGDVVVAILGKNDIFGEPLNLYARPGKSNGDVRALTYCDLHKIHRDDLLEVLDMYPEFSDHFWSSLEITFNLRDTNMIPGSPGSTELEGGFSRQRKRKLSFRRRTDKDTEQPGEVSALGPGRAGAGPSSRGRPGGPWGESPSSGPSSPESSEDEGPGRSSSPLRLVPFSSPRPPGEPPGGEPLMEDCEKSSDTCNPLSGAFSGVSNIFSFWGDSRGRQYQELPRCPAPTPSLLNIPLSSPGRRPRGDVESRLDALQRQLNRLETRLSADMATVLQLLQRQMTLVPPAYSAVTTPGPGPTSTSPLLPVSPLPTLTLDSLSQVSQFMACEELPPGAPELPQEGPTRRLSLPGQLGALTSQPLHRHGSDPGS
Assay: cell-based
metric name: IC50

INSERT INTO results (record_smiles, system_tested, value_measured) VALUES
  ('CNS(=O)(=O)Nc1cccc(Cc2c(CNc3ccn[nH]3)c3ccc(OC(=O)N(C)C)cc3oc2=O)c1F', 'hERG Channel (Homo sapiens, UniProt Q12809)', '> 30 µM'),
  ('CNS(=O)(=O)Nc1cccc(Cc2c(CN3CCNCC3)c3ccc(OC(=O)N(C)C)cc3oc2=O)c1F', 'hERG Channel (Homo sapiens, UniProt Q12809)', '> 30 µM'),
  ('CNS(=O)(=O)Nc1cccc(Cc2c(CNCC#N)c3ccc(OC(=O)N(C)C)cc3oc2=O)c1F', 'hERG Channel (Homo sapiens, UniProt Q12809)', '> 30 µM');

----------
Known activity at 0.01 µM of a selection of compounds
System: A549 pERK
Assay: A549-pERK, 2 h (quantitative Western, Jess)
Type: cell-based
Details: Homo sapiens, A549, 2 h, 10 nM, phospho:total ratio normalized to DMSO control
metric name: activity at 0.01 µM (%)

INSERT INTO measurements (record_smiles, system_tested, measure_unit, value_measured) VALUES
  ('CNS(=O)(=O)Nc1cccc(Cc2c(CN(C)C)c3ccc(OC(=O)N4CCC4)cc3oc2=O)c1F', 'A549 pERK', '%', 66.3),
  ('CNS(=O)(=O)Nc1cccc(Cc2c(CNc3ccsc3)c3ccc(OC(=O)N(C)C)cc3oc2=O)c1F', 'A549 pERK', '%', 72.4),
  ('CNS(=O)(=O)Nc1cccc(Cc2c(CN3CC(Cl)C3)c3ccc(OC(=O)N(C)C)cc3oc2=O)c1F', 'A549 pERK', '%', 104),
  ('CNS(=O)(=O)Nc1cccc(Cc2c(CN3CCNCC3)c3ccc(OC(=O)N(C)C)cc3oc2=O)c1F', 'A549 pERK', '%', 27.7),
  ('CNS(=O)(=O)Nc1cccc(Cc2c(CN3CC(N(C)C)C3)c3ccc(OC(=O)N(C)C)cc3oc2=O)c1F', 'A549 pERK', '%', 64),
  ('CNS(=O)(=O)Nc1cccc(Cc2c(CN(C)C)c3ccc(OC(=O)N4CCN(C)CC4)cc3oc2=O)c1F', 'A549 pERK', '%', 110),
  ('CNS(=O)(=O)Nc1cccc(Cc2c(CN3CCN(Cc4ccccc4)CC3)c3ccc(OC(=O)N(C)C)cc3oc2=O)c1F', 'A549 pERK', '%', 91.6),
  ('CNS(=O)(=O)Nc1cccc(Cc2c(CN3CCN(C(=O)c4ccccc4)CC3)c3ccc(OC(=O)N(C)C)cc3oc2=O)c1F', 'A549 pERK', '%', 100),
  ('CNS(=O)(=O)Nc1cccc(Cc2c(CC(=O)N(C)CC#N)c3ccc(OC(=O)N(C)C)cc3oc2=O)c1F', 'A549 pERK', '%', 109),
  ('CNS(=O)(=O)Nc1cccc(Cc2c(CC(=O)N3CC(OC)C3)c3ccc(OC(=O)N(C)C)cc3oc2=O)c1F', 'A549 pERK', '%', 89.5),
  ('CNS(=O)(=O)Nc1cccc(Cc2c(CN(C)c3cccc(Cl)c3)c3ccc(OC(=O)N(C)C)cc3oc2=O)c1F', 'A549 pERK', '%', 80.2),
  ('CNS(=O)(=O)Nc1cccc(Cc2c(CN3CC(C)(C)C3)c3ccc(OC(=O)N(C)C)cc3oc2=O)c1F', 'A549 pERK', '%', 104),
  ('CN(C)C(=O)Oc1ccc2c(CN3CCC3)c(Cc3ccnc(NS(=O)(=O)C4CC4)c3F)c(=O)oc2c1', 'A549 pERK', '%', 84.9),
  ('CNS(=O)(=O)Nc1cccc(Cc2c(CNc3cn[nH]c3)c3ccc(OC(=O)N(C)C)cc3oc2=O)c1F', 'A549 pERK', '%', 93.8),
  ('CNS(=O)(=O)Nc1cccc(Cc2c(CNCC(=O)N(C)CC#N)c3ccc(OC(=O)N(C)C)cc3oc2=O)c1F', 'A549 pERK', '%', 96.7),
  ('CNC1CN(Cc2c(Cc3cccc(NS(=O)(=O)NC)c3F)c(=O)oc3cc(OC(=O)N(C)C)ccc23)C1', 'A549 pERK', '%', 102),
  ('CNS(=O)(=O)Nc1cccc(Cc2c(CN(C)c3ccccc3Cl)c3ccc(OC(=O)N(C)C)cc3oc2=O)c1F', 'A549 pERK', '%', 98.9),
  ('CNS(=O)(=O)Nc1cccc(Cc2c(CN(C)CC3CCC3)c3ccc(OC(=O)N(C)C)cc3oc2=O)c1F', 'A549 pERK', '%', 142);

----------
Molecular target: CYP450 2B6 (Homo sapiens, UniProt P20813)
Sequence (P20813 whole entry): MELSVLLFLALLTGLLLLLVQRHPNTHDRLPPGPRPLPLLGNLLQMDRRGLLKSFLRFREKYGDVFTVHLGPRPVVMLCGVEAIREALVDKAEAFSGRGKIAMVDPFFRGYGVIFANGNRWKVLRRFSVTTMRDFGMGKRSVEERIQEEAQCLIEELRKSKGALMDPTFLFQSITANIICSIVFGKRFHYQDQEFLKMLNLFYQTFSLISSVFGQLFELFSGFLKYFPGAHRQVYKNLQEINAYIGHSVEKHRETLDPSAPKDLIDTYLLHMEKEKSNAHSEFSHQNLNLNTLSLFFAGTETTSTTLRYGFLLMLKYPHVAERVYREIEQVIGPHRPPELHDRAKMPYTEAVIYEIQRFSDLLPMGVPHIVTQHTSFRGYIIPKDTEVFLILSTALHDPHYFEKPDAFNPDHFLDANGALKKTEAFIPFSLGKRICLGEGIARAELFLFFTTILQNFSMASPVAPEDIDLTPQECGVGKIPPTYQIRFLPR
Experiment: CYP450 panel, 2B6
Conditions: 10 μM; substrate bupropion
metric name: 2B6*

INSERT INTO measurements (compound, system_tested, metric_name, value_measured) VALUES
  ('CNS(=O)(=O)Nc1cccc(Cc2c(CN(C)C)c3ccc(OC(=O)N(C)C)cc3oc2=O)c1F [Compound 9]', 'CYP450 2B6 (Homo sapiens, UniProt P20813)', '2B6*', 14.8),
  ('CNS(=O)(=O)Nc1cccc(Cc2c(CNCC#N)c3ccc(OC(=O)N(C)C)cc3oc2=O)c1F [Compound 13]', 'CYP450 2B6 (Homo sapiens, UniProt P20813)', '2B6*', 15.8),
  ('CNS(=O)(=O)Nc1cccc(Cc2c(CN3CCNCC3)c3ccc(OC(=O)N(C)C)cc3oc2=O)c1F [Compound 10]', 'CYP450 2B6 (Homo sapiens, UniProt P20813)', '2B6*', 22.4),
  ('CNS(=O)(=O)Nc1cccc(Cc2c(CNC3CC3)c3ccc(OC(=O)N(C)C)cc3oc2=O)c1F [Compound 11]', 'CYP450 2B6 (Homo sapiens, UniProt P20813)', '2B6*', 12.1);
